Form field: pKi (one value per entry).
target: UniProtKB P04585; test: Enzymatic (FRET fluorometric) assay for determining the inhibition constant (Ki) of compounds targeting the HIV protease; format: biochemical; conditions: FRET substrate (EDANS/DABCYL), equation of Henderson; read-out: Ki
pKi here: minus log base 10 of the concentration, concentration in moles per litre.

[in] Given the entry CC(C)CN([C@H](CO)CCCCNC(=O)N(Cc1ccc(C(F)(F)F)cc1)Cc1cccc2c1OCO2)S(=O)(=O)c1ccc(N)cc1 [Example 90] , report its measured pKi.
[out] 8.05

###

target: HIV protease (Human immunodeficiency virus type 1 group M subtype B); test: Enzymatic (FRET fluorometric) assay for determining the inhibition constant (Ki) of compounds targeting the HIV protease; format: biochemical; conditions: FRET substrate (EDANS/DABCYL), equation of Henderson; read-out: Ki
Entries annotated with measured Ki
Supply the numeric figure in nM, leaving out any unit text.

[in] Fill in the blank: the reported Ki of Cc1ccc(S(=O)(=O)N(CC(C)C)[C@@H](CCCCNC(=O)N(Cc2ccncc2)Cc2ccncc2)C(=O)O)cc1 is ____.
[out] 187

[in] Moving on to the next compound: COc1ccc(CN(Cc2ccncc2)C(=O)NCCCC[C@@H](CO)N(CC(C)C)S(=O)(=O)c2ccc(N)cc2)cc1
[out] 90

[in] Can you check CC(C)CN([C@H](CO)CCCCNC(=O)N(Cc1ccsc1)Cc1ccc2c(c1)OCO2)S(=O)(=O)c1ccc(N)cc1 next?
[out] 6.3

[in] What would you report for Cc1ccc(S(=O)(=O)N(CC(C)C)[C@@H](CCCCNC(=O)N(Cc2ccccc2)Cc2ccccc2[N+](=O)[O-])C(=O)O)cc1 ?
[out] 0.9

[in] What about CC(C)CN([C@H](CO)CCCCNC(=O)N(Cc1ccc(F)cc1)Cc1cccnc1)S(=O)(=O)c1ccc(N)cc1 ?
[out] 30

[in] Try this compound next: Cc1ccc(S(=O)(=O)N(CC(C)C)[C@@H](CCCCNC(=S)NCCc2c[nH]c3ccccc23)C(=O)O)cc1
[out] 111

###

target: HIV protease (Human immunodeficiency virus type 1 group M subtype B, UniProt P04585); experiment: Enzymatic (FRET fluorometric) assay for determining the inhibition constant (Ki) of compounds targeting the HIV protease; format: biochemical; conditions: FRET substrate (EDANS/DABCYL), equation of Henderson; read-out: Ki
quantity name: Ki (nM)
Report only the number, with the unit nM understood.

[in] Requested field: Ki. Item: CC(C)CN([C@H](CO)CCCCNC(=O)N(CCc1cccs1)Cc1ccc(F)cc1)S(=O)(=O)c1ccc(N)cc1
[out] 34

More entries:
[in] Fill in: Ki of CC(C)CCN([C@H](CO)CCCCNC(=O)N(Cc1ccc(C(F)(F)F)cc1)Cc1ccc2c(c1)OCO2)S(=O)(=O)c1ccc(N)cc1 is ___
[out] 3

[in] And the next one, Cc1ccc(S(=O)(=O)N(CC(C)C)[C@@H](CCCCNC(=O)N(Cc2ccccc2)Cc2ccncc2)C(=O)O)cc1 ?
[out] 3.7

[in] Another compound to look at: Cc1ccc(S(=O)(=O)N(CC(C)C)[C@@H](CCCCNC(=O)N[C@@H]2CCc3ccccc32)C(=O)O)cc1
[out] 196

###

biological target: HIV protease (Human immunodeficiency virus type 1 group M subtype B); assay: Enzymatic (FRET fluorometric) assay for determining the inhibition constant (Ki) of compounds targeting the HIV protease; assay type: biochemical; settings: Ki, FRET substrate (EDANS/DABCYL), equation of Henderson
Criterion: Ki strictly under 3 nM. Met: True. Not met: False.

[in] Find out if reported Ki for Cc1ccc(S(=O)(=O)N(CC(C)C)[C@H](CO)CCCCNC(=O)N(Cc2ccccc2)Cc2ccccc2[N+](=O)[O-])cc1 is less than 3 nM
[out] True

[in] Then this molecule: Cc1ccc(S(=O)(=O)N(CC(C)C)[C@H](CO)CCCCNC(=O)N(Cc2ccccc2)Cc2cccc([N+](=O)[O-])c2)cc1
[out] False

[in] Entry Cc1ccc(S(=O)(=O)N(CC(C)C)[C@H](CO)CCCCNC(=O)N(Cc2ccccc2)Cc2ccc([N+](=O)[O-])cc2)cc1 please
[out] False

***
[in] Would you kindly verify if Ki of CC(C)CN([C@H](CO)CCCCNC(=O)N(Cc1ccccc1)Cc1ccc2c(c1)OCO2)S(=O)(=O)c1ccc(N)cc1 is strictly less than 3 nM?
[out] True

[in] Would you kindly repeat that for CC(C)CN([C@H](CO)CCCCNC(=O)N(Cc1ccc(F)cc1)Cc1ccc2c(c1)OCO2)S(=O)(=O)c1ccc(N)cc1 ?
[out] True

[in] Next: CC(C)CN([C@H](CO)CCCCNC(=O)N(Cc1ccc2c(c1)OCO2)Cc1ccc2c(c1)OCO2)S(=O)(=O)c1ccc(N)cc1
[out] True

###

target: HIV protease (Human immunodeficiency virus type 1 group M subtype B); experiment: Enzymatic (FRET fluorometric) assay for determining the inhibition constant (Ki) of compounds targeting the HIV protease; format: biochemical; details: FRET substrate (EDANS/DABCYL), equation of Henderson; read-out: Ki
Known Ki of a selection of compounds
I only need the number, in nM, no unit after it.

[in] May I ask what Ki has been recorded for Cc1ccc(S(=O)(=O)N(CC(C)C)[C@H](CO)CCCCNC(=O)N(Cc2ccccc2)Cc2ccccc2N)cc1 [Example 62] ?
[out] 39

[in] Now try CC(C)CN([C@H](CO)CCCCNC(=O)N(Cc1ccc(F)cc1)C1CCCCC1)S(=O)(=O)c1ccc(N)cc1 [Example 66] .
[out] 175

[in] Then this compound: CC(C)CN([C@@H](CCCCNC(=O)N(Cc1ccccc1)Cc1ccccc1)C(=O)O)S(=O)(=O)c1ccc(N)cc1 [Example 36]
[out] 1.8

[in] CC(C)CN([C@H](CO)CCCCNC(=O)N(Cc1ccccc1)Cc1ccccc1)S(=O)(=O)c1ccc(N)cc1 [Example 41] , same question.
[out] 12

[in] Let us now turn to Cc1ccc(S(=O)(=O)N(CC(C)C)[C@@H](CCCCNC(=O)N(Cc2ccccc2)Cc2ccccc2N)C(=O)O)cc1 [Example 57]
[out] 1.7

[in] Now the compound CC(C)CN([C@@H](CCCCNC(=O)N(Cc1ccccc1)Cc1cccnc1)C(=O)O)S(=O)(=O)c1ccc(N)cc1 [Example 47]
[out] 2.4

[in] Next compound: Cc1ccc(S(=O)(=O)N(CC(C)C)[C@@H](CCCCNC(=O)N(Cc2ccccc2)Cc2ccc([N+](=O)[O-])cc2)C(=O)O)cc1 [Example 56]
[out] 1.5

[in] // next record CC(C)CN([C@H](CO)CCCCNC(=O)N(Cc1cccc(F)c1)C1CCCCC1)S(=O)(=O)c1ccc(N)cc1 [Example 71]
[out] 235

[in] Entry to check: Cc1ccc(S(=O)(=O)N(CC(C)C)C(CCCCNC(=NC#N)NCCc2c[nH]c3ccccc23)C(=O)O)cc1 (centres unmarked) [Example 29]
[out] 8.2

[in] Input CC(C)CN([C@H](CO)CCCCNC(=O)N(Cc1ccccc1)Cc1ccc(F)cc1)S(=O)(=O)c1ccc(N)cc1 [Example 68]
[out] 3.3

More entries:
[in] What value of Ki has been recorded for this entry: Cc1ccc(S(=O)(=O)N(CC(C)C)[C@@H](CCCCNC(=O)N(Cc2ccccc2)Cc2cccnc2)C(=O)O)cc1 [Example 42]
[out] 3.7

[in] What about this compound? CC(C)CN([C@H](CO)CCCCNC(=O)N(Cc1ccc(C(F)(F)F)cc1)Cc1ccc2c(c1)OCO2)S(=O)(=O)c1ccc(N)cc1 [Example 92]
[out] 2.5

[in] Thanks! And CC(C)CN([C@@H](CCCCNC(=O)N(Cc1ccccc1)Cc1ccncc1)C(=O)O)S(=O)(=O)c1ccc(N)cc1 [Example 48] ?
[out] 12

[in] CC(C)CCN([C@H](CO)CCCCNC(=O)N(Cc1ccc([N+](=O)[O-])cc1)Cc1ccc2c(c1)OCO2)S(=O)(=O)c1ccc(N)cc1 [Example 89] , same question.
[out] 2.2

###

Experiment: in vitro
Type: cell-based
Details: human
Description: To evaluate the EC50 of our compounds, various drug concentrations are incubated with the infected cell for six days and then the metabolic activity of the cells is monitored by the MTT assay. (See A. J. Japour et al, Antimicrobial Agents and Chemotherapy, 37, 1095-1101, 1993 and R. Pauwels et al. Journal of Virological Methods, 20, 309-321, 1988). We use the laboratory viral strain NL4.3 as wild type virus and the cell line used is MT-4 which is a T-cell line highly sensitive to HIV-1. […]
Binary call on IC50 at 6 days with cut-off 10 µM: strictly below means TRUE, and equality or higher means FALSE.

[in] Check if IC50 at 6 days falls below 10 µM for CC(C)CCN([C@H](CO)CCCCNC(=O)N(Cc1ccc(F)cc1)Cc1ccc2c(c1)OCO2)S(=O)(=O)c1ccc(N)cc1 .
[out] FALSE

Where these numbers come from: patent US6528532B1
